# System: RPMI-8226
# ASSAY_METHOD_TEXT: NCI tumour cell line growth inhibition, 48 h
Calls of active or inactive are those of the source. No stated cut-off is given here; in the data, active = GI50 up to about 1.1 µM and inactive = higher. Non-standard residues stand in square brackets, D forms with d. Residues, ends and D or L forms follow the SMILES beside them. *: point of attachment. Benzoyl(4-OMe) = COc1ccc(C(=O)*)cc1; 2Thi = N[CH](Cc1cccs1)C(=O)O
Outcomes: yes (1) (active), no (0) (inactive)

# COMPOUND, SYSTEM, CLASS
records = [
    ("C/C=C/C(C#N)(/C=C/c1ccccc1)OP1(=O)OC(c2ccccc2)C(C)N1C (stereo unspecified)", "RPMI-8226", "no (0)"),
    ("CCC(C)C(NC(=O)C(Cc1cccs1)NC(=O)C(CC(C)C)NC(=O)C(CC(C)C)NC(=O)C(CCCCN)NC(=O)C(CCCNC(=N)N)NC(=O)c1ccc(OC)cc1)C(=O)NC(CC(C)C)C(N)=O (stereo unspecified) ({Benzoyl(4-OMe)}-RKLL[2Thi]IL-NH2; configuration not given here)", "RPMI-8226", "no (0)"),
    ("Nc1nc2c(-c3ccc([N+](=O)[O-])cc3)nnn2c2ccccc12", "RPMI-8226", "no (0)"),
    ("C[C@]12CCC(=O)C=C1CC[C@@H]1C2CC[C@]2(C)c3nn(-c4ccccc4)nc3CC12 (stereo partly specified)", "RPMI-8226", "no (0)"),
    ("CC(NNC(=O)CC(=O)N(C(=O)c1ccccc1)c1ccc(Cl)cc1)c1cc2ccccc2oc1=O (stereo unspecified)", "RPMI-8226", "no (0)"),
    ("COc1cc2c(cc1O)[C@H](C)C(c1ccc(OC)c(OC)c1)O2 (stereo partly specified)", "RPMI-8226", "no (0)"),
    ("CC(C)(C)OC(=O)C1CC[C@@H](CC(=O)Oc2ccc([N+](=O)[O-])cc2)N1 (stereo partly specified)", "RPMI-8226", "no (0)"),
    ("O=[N+]([O-])c1ccc(-c2cnc3ccccn23)cc1", "RPMI-8226", "no (0)"),
    ("O=c1c2cc(S(=O)(=O)Nc3ccc(Cl)cc3Cl)ccc2ncn1NS(=O)(=O)c1cccc2ccccc12", "RPMI-8226", "no (0)"),
    ("Cc1nn(C)c2c1C(=O)N(C)CC(=O)N2C", "RPMI-8226", "no (0)"),
    ("N/C=N/S(=O)(=O)c1ccc(NC(=O)COC(=O)c2cccc3c(=O)c4ccccc4[nH]c23)cc1", "RPMI-8226", "no (0)"),
    ("Cc1ccc(C#CS(=O)(=O)C(F)(F)F)cc1", "RPMI-8226", "no (0)"),
    ("COc1ccc(N2C(=O)/C(=C\\c3cc(OC)c(OC)c(OC)c3)S(=O)(=O)C2c2ccccc2)cc1 (stereo unspecified)", "RPMI-8226", "no (0)"),
    ("Cc1cccc(NC(=O)/C(=N\\NC(C)(C)C)C2NC(=S)NC2=O)c1C (stereo unspecified)", "RPMI-8226", "no (0)"),
    ("C[N+](C)(C)CC(=O)N/N=C/c1oc(-c2c(O)ccc3ccccc23)c(-c2c(O)ccc3ccccc23)c1[N+](=O)[O-]", "RPMI-8226", "no (0)"),
    ("CC(=O)NC(Cc1c[nH]cn1)C(=O)N1CCCC1C(N)=O (stereo unspecified)", "RPMI-8226", "no (0)"),
    ("N#CCSc1c(-c2ccccc2)c(=O)n(-c2ccccc2)c(=S)n1-c1ccccc1", "RPMI-8226", "no (0)"),
    ("O=c1c2ccccc2[nH]c2c(Cl)cc(Cl)c(N3CCCCC3)c12", "RPMI-8226", "no (0)"),
    ("O=C(Nc1ccccc1)OC1OC(COC(=O)c2ccccc2)C(OC(=O)c2ccccc2)C1OS(=O)(=O)c1ccc([N+](=O)[O-])cc1 (stereo unspecified)", "RPMI-8226", "no (0)"),
    ("CCc1[nH]nc(C(N)=O)c1/N=N/N(C)C", "RPMI-8226", "no (0)"),
    ("O=C(NCCCl)NCc1ccccc1", "RPMI-8226", "no (0)"),
    ("CCOC(=O)[C@@H]1OC(c2ccccc2)O[C@H]1C(=O)OCC", "RPMI-8226", "no (0)"),
    ("COc1cccc(N2C(=O)C3C4C=C5c6ccccc6N(c6ccccc6)C5(C3C2=O)[C@H]2C(=O)N(c3cccc(OC)c3)C(=O)[C@@H]42)c1 (stereo partly specified)", "RPMI-8226", "no (0)"),
    ("CC1=NN(C(=O)c2ccccc2O)C(=O)/C1=C/c1c(O)ccc2ccccc12", "RPMI-8226", "no (0)"),
    ("NS(=O)(=O)c1ccc(Nc2c3ccccc3nc3c(C(=O)NC(CO)(CO)CO)cccc23)cc1", "RPMI-8226", "yes (1)"),
    ("O=C1/C(=C/c2cccnc2)C(n2cccc2)c2c(Br)sc(Br)c21 (stereo unspecified)", "RPMI-8226", "no (0)"),
    ("Clc1ccc(SC(/C=C/NNC2=NN=C(c3ccccc3)C(c3ccccc3)N2)c2ccccc2)cc1 (stereo unspecified)", "RPMI-8226", "no (0)"),
    ("COC(=O)c1[nH]c(=S)[nH]c(=O)c1-c1ccc(Cl)cc1", "RPMI-8226", "no (0)"),
    ("CCOC(=O)C1Cc2c(ccc(OC)c2OC)C(=O)C1N (stereo unspecified)", "RPMI-8226", "no (0)"),
    ("Cc1cccc2nc3cc(O)cc(O)c3c(O)c12", "RPMI-8226", "no (0)"),
    ("CCc1cccc(CC)c1NC(=O)C1=C(C)NC(C)=C(C(=O)Nc2c(CC)cccc2CC)C1c1ccc([N+](=O)[O-])cc1", "RPMI-8226", "no (0)"),
    ("CCOc1cc(-c2nc3ccccn3c2/N=C/c2cc([N+](=O)[O-])cc([N+](=O)[O-])c2O)ccc1O", "RPMI-8226", "no (0)"),
    ("O=C1c2ccccc2C(=O)N1CCN(CCN1C(=O)c2ccccc2C1=O)Cc1ccccc1", "RPMI-8226", "no (0)"),
    ("COc1cc(-c2cc(CCC(=O)Nc3ccccc3[N+](=O)[O-])n(-c3ccc([N+](=O)[O-])cc3[N+](=O)[O-])n2)ccc1O", "RPMI-8226", "no (0)"),
    ("CC(C)(C)c1cc(C(=O)C2Cc3ccccc3C(=O)O2)cc(C(C)(C)C)c1O (stereo unspecified)", "RPMI-8226", "no (0)"),
    ("CN(C)c1ccc(C2CC(=O)CC(c3ccc(N(C)C)cc3)C23C(=O)NC(=O)NC3=O)cc1 (stereo unspecified)", "RPMI-8226", "no (0)"),
]
